System: T98G
Experiment: Cytotoxicity against cancer cell lines (Example 5), T98G
Assay type: cell-based
Settings: Tables 5-12; drug resistant cell line
pIC50: −log10 of the molar value.

MOL SMILES: CCOc1cccc2c1C(=O)c1c(OCC)cc(NC(=O)CO)cc1C2=O
pIC50: 4.81
--
MOL SMILES: C=CC(=O)Nc1cc(OCC)c2c(c1)C(=O)c1cccc(OCC)c1C2=O
pIC50: 4.68
--
MOL SMILES: COc1cccc2c1C(=O)c1c(OC)cc(NC(=O)CN=[N+]=[N-])cc1C2=O
pIC50: < 4.30
--
MOL SMILES: COc1cccc2c1C(=O)c1c(OC)cc(NC(=O)CCCCl)cc1C2=O
pIC50: < 4.30
--
MOL SMILES: C=CCOc1cccc2c1C(=O)c1c(OCC=C)cc(NC(=O)CI)cc1C2=O
pIC50: < 4.30
--
MOL SMILES: COc1cccc2c1C(=O)c1c(OC)cc(NC(C)=O)cc1C2=O
pIC50: < 4.30
--
MOL SMILES: O=C(OCc1ccccc1)c1cc(OCc2ccccc2)c2c(c1)C(=O)c1cccc(OCc3ccccc3)c1C2=O
pIC50: < 4.30
--
MOL SMILES: COc1cccc2c1C(=O)c1c(OC)cc(NC(=O)CC#N)cc1C2=O
pIC50: < 4.30
--
MOL SMILES: [N-]=[N+]=NCCOc1cccc2c1C(=O)c1c(OCCN=[N+]=[N-])cc(N)cc1C2=O
pIC50: < 4.90

---

Tested on: HeLa
Assay: Cytotoxicity against cancer cell lines (Example 5), Hela
Assay type: cell-based
Details: Tables 5-12
Quick reference for IC50 among some molecules
PROPERTY: IC50 (µM)

MOL SMILES: O=C(OCc1ccccc1)c1cc(OCc2ccccc2)c2c(c1)C(=O)c1cccc(OCc3ccccc3)c1C2=O
PROPERTY: IC50
MODIFIER SIGN: =
ENDPOINT RESULT: 18.6
//
MOL SMILES: COc1cccc2c1C(=O)c1c(OC)cc(NC(=O)CC#N)cc1C2=O
PROPERTY: IC50
MODIFIER SIGN: >
ENDPOINT RESULT: 50
//
MOL SMILES: O=C(CBr)Nc1cc(O)c2c(c1)C(=O)c1cccc(OCc3ccccc3)c1C2=O
PROPERTY: IC50
MODIFIER SIGN: =
ENDPOINT RESULT: 5.6
//
MOL SMILES: CCOc1cccc2c1C(=O)c1c(OCC)cc(NC(=O)CN)cc1C2=O
PROPERTY: IC50
MODIFIER SIGN: =
ENDPOINT RESULT: 11
//
MOL SMILES: COc1cccc2c1C(=O)c1c(OC)cc(NC(=O)C(F)F)cc1C2=O
PROPERTY: IC50
MODIFIER SIGN: >
ENDPOINT RESULT: 50
//
MOL SMILES: C=CCOc1cccc2c1C(=O)c1c(OCC=C)cc(NC(=O)CN=[N+]=[N-])cc1C2=O
PROPERTY: IC50
MODIFIER SIGN: >
ENDPOINT RESULT: 50
//
MOL SMILES: COc1cccc2c1C(=O)c1c(OC)cc(NC(=O)COCc3ccccc3)cc1C2=O
PROPERTY: IC50
MODIFIER SIGN: >
ENDPOINT RESULT: 50
//
MOL SMILES: CCOc1cccc2c1C(=O)c1c(OCC)cc(NC(=O)CNC)cc1C2=O
PROPERTY: IC50
MODIFIER SIGN: =
ENDPOINT RESULT: 0.753
